- TEST DETAILS: in vivo
- CONDITION INFO: beagle, dog, iv, 1 mg/kg
ASSAY METRIC: Vd (L/kg)
Write the answer as a number in L/kg, unit excluded.

Lookup: Fill in Vd for record C[C@@]1(O)CC[C@@]2(C)[C@@H](CC[C@@H]3[C@@H]2CC[C@]2(C)[C@@H](C(=O)Cn4cc(C#N)cn4)CC[C@@H]32)C1
Found: 1.92

* * *

- TEST SYSTEM: α1β2γ2 GABAA receptors (Homo sapiens, UniProt P14867+P47870)
- Sequence (P14867 28-456): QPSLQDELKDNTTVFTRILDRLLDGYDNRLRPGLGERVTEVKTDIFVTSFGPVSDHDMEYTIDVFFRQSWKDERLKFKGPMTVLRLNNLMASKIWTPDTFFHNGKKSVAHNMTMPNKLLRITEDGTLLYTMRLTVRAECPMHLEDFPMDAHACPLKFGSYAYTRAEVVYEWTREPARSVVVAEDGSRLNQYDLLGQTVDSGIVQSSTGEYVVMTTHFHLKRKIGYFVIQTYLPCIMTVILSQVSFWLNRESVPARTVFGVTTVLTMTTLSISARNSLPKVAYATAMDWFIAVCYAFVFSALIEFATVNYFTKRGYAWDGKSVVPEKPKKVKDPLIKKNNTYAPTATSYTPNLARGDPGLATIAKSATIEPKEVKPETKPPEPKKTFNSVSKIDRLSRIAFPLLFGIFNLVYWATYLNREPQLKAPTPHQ
- Sequence (P47870 25-512 limits assumed): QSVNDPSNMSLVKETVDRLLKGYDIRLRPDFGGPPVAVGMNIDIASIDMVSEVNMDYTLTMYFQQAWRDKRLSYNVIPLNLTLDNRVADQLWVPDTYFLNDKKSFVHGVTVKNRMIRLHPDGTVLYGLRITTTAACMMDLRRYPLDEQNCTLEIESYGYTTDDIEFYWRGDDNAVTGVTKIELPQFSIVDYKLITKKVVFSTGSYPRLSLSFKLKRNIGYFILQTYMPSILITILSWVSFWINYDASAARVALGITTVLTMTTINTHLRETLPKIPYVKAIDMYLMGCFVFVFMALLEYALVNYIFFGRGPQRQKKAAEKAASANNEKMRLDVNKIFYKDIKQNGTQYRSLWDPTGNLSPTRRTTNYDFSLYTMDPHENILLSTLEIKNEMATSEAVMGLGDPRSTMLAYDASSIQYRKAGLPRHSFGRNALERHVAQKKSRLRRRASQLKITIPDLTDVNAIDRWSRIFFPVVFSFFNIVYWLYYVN
- Sequence (P18507 40-475 partner): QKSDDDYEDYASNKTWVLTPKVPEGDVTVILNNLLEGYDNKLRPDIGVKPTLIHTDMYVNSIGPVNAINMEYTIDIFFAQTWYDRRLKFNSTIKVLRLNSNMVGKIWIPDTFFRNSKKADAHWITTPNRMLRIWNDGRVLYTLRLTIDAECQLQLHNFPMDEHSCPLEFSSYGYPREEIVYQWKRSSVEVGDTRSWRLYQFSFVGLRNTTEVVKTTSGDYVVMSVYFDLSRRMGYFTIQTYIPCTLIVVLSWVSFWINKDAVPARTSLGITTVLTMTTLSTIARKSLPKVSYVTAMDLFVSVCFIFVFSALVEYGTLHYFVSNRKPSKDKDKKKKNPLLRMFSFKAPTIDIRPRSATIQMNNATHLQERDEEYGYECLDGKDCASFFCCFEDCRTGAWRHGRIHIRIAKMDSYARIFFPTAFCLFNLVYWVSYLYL
- TEST DETAILS: Synchropatch electrophysiology, potentiation of synaptic GABAA receptors
Property: pEC50; scope: individual compounds
// pEC50 here means minus log10 of the molar concentration (mol/L)

{"columns": ["COMPOUND", "REPORTED"],
 "data": [
  ["CC(=O)[C@H]1CC[C@H]2[C@@H]3CC[C@H]4C[C@](C)(O)CC[C@]4(C)[C@H]3CC[C@]12C [Ganaxolone, ganaxolone]", 7.05],
  ["C[C@@]1(O)CC[C@@]2(C)[C@@H](CC[C@@H]3[C@@H]2CC[C@]2(C)[C@@H](C(=O)Cn4cc(C#N)cn4)CC[C@@H]32)C1 [CV-10155]", 6.68]
]}

Lab note: next compound to report on.
Lookup: Fill in pEC50 for record C[C@@]1(O)CC[C@H]2[C@H](CC[C@@H]3[C@@H]2CC[C@]2(C)[C@@H](C(=O)Cn4cc(C#N)cn4)CC[C@@H]32)C1 [Sage-217]
Found: 6.72
